These entries and their values trace back to patent US20200283478A1.

Target: T1, His-tagged PCSK9Δhelix (human, UniProt Q8NBP7 31-152; Q8NBP7 168-692)
T1 construct: Construct M1-Q692 with engineered TEV site, cut by TEV protease; new N-terminus of the catalytic domain is S-A168; also called His-PCSK9Δhelix
T1 sequence (Q8NBP7 31-152, stated change not applied, chain 1 of 2): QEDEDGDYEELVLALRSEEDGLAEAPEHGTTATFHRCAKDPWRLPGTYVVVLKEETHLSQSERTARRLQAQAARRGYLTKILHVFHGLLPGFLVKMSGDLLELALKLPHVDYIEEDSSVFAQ
T1 sequence (Q8NBP7 other isoform, or with tags, fused parts or gaps mutant, chain 2 of 2): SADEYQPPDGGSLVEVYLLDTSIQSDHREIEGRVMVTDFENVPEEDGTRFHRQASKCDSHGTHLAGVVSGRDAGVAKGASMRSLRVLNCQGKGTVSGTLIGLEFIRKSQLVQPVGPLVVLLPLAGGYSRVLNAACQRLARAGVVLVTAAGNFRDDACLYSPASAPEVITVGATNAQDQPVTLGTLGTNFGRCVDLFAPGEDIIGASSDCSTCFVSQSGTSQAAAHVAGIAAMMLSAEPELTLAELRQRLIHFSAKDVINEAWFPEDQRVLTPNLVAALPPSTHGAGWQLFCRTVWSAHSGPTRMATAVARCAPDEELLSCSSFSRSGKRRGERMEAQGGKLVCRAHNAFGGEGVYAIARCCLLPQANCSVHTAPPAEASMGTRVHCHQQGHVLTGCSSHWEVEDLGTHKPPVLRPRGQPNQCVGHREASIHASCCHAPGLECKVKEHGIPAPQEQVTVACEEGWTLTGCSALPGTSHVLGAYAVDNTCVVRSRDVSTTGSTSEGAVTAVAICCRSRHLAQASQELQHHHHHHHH
Experiment: TR-FRET competition; His-PCSK9Δhelix, competitor Ab20
Square brackets hold non-standard residues; d marks the D form. Ends that are not written are not given here. * marks the point of attachment. hArg = N=C(N)NCCCC[C@H](N)C(=O)O; Pentanoyl = CCCCC(=O)*
propertyName: IC50 (µM)
Write it as a number; the unit µM goes unstated.

Examples from the recorded data:
1) WNLVRIGLLR (also: further groups not given here, Structure printed only as a drawing) [Compound 132] ... 9
2) Pentanoyl-WNLKRIGLLR-NH2 (SMILES CCCCC(=O)N[C@@H](Cc1c[nH]c2ccccc12)C(=O)N[C@@H](CC(N)=O)C(=O)N[C@@H](CC(C)C)C(=O)N[C@@H](CCCCN)C(=O)N[C@@H](CCCNC(=N)N)C(=O)N[C@H](C(=O)NCC(=O)N[C@@H](CC(C)C)C(=O)N[C@@H](CC(C)C)C(=O)N[C@@H](CCCNC(=N)N)C(N)=O)[C@@H](C)CC) [Compound 159] ... 6.6

Input: Which IC50 is listed for WNLVRIGLTR (also: further groups not given here, Structure printed only as a drawing) [Compound 171] ?
Output: 7.7

Input: Which IC50 is listed for WNLVRIGLTR (also: further groups not given here, Structure printed only as a drawing) [Compound 164] ?
Output: 12

Input: Which IC50 is listed for Ac-ESFPGWNLV[hArg]IGLLR-NH2 (SMILES CC[C@H](C)[C@H](NC(=O)[C@H](CCCCNC(=N)N)NC(=O)[C@@H](NC(=O)[C@H](CC(C)C)NC(=O)[C@H](CC(N)=O)NC(=O)[C@H](Cc1c[nH]c2ccccc12)NC(=O)CNC(=O)[C@@H]1CCCN1C(=O)[C@H](Cc1ccccc1)NC(=O)[C@H](CO)NC(=O)[C@H](CCC(=O)O)NC(C)=O)C(C)C)C(=O)NCC(=O)N[C@@H](CC(C)C)C(=O)N[C@@H](CC(C)C)C(=O)N[C@@H](CCCNC(=N)N)C(N)=O) [Compound 227] ?
Output: 24

Input: Which IC50 is listed for Ac-ESYPGWNLV[hArg]IGLLR-NH2 (SMILES CC[C@H](C)[C@H](NC(=O)[C@H](CCCCNC(=N)N)NC(=O)[C@@H](NC(=O)[C@H](CC(C)C)NC(=O)[C@H](CC(N)=O)NC(=O)[C@H](Cc1c[nH]c2ccccc12)NC(=O)CNC(=O)[C@@H]1CCCN1C(=O)[C@H](Cc1ccc(O)cc1)NC(=O)[C@H](CO)NC(=O)[C@H](CCC(=O)O)NC(C)=O)C(C)C)C(=O)NCC(=O)N[C@@H](CC(C)C)C(=O)N[C@@H](CC(C)C)C(=O)N[C@@H](CCCNC(=N)N)C(N)=O) [Compound 231] ?
Output: 17

Input: Which IC50 is listed for WNLV[hArg]IGLLR (also: further groups not given here, Structure printed only as a drawing) [Compound 207] ?
Output: 0.32
